As shown below, each of these molecules has a reported Ki value.
study.system: Thromboxane A2 receptor (Homo sapiens, UniProt P21731)
Sequence (P21731 whole entry): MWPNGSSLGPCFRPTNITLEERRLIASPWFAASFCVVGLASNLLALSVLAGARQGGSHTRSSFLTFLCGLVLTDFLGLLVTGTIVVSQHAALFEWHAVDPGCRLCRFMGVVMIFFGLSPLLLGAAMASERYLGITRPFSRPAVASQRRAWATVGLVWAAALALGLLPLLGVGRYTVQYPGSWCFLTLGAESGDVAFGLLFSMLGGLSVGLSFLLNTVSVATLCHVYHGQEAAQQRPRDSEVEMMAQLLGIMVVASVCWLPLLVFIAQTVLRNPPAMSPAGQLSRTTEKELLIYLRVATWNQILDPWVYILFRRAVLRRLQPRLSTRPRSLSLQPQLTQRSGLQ
test: Binding affinity against human recombinant Thromboxane A2 receptor was determined using radioligand competition binding assay

Please review the entries below; each comes with its answer.
FC(F)(F)c1ccc(CSc2nc3ccccc3n2Cc2ccc(Cl)cc2)cc1 : > 73 µM
NS(=O)(=O)c1ccc(CSc2nc3ccccc3n2Cc2ccc(Cl)cc2)cc1 : > 70 µM
COC(=O)c1ccc(/C=C/c2nc3ccccc3n2Cc2ccc(Cl)cc2)cc1 : > 75 µM

Let me know recorded Ki for Cc1nc(-c2ccc(CSc3nc4ccccc4n3Cc3ccc(Cl)cc3)cc2)no1 , thanks. > 74 µM

---

study.system: UniProt P21731
test: Binding affinity against human recombinant Thromboxane A2 receptor was determined using radioligand competition binding assay
attribute.measured: Ki

Cc1noc(-c2ccc(CSc3nc4ccccc4n3Cc3ccc(Cl)cc3)cc2)n1 : > 74 µM
CCOC(=O)c1cc(CSc2nc3ccccc3n2Cc2ccc(Cl)cc2)cc(C(=O)OCC)c1 : > 71 µM

Moving on to another compound below.
Provide one value: measured Ki of CSc1ccc(CSc2nc3ccccc3n2Cc2ccc(Cl)cc2)cc1 > 73 µM
